# System: K-562 leukemia
# assay_procedure: NCI tumour cell line growth inhibition, 48 h
measured_property: TGI

Here's what some known entries look like.
compound: CCOC(=O)NC(C(=O)OCC)(N1CCN(c2cc3c(cc2F)c(=O)c(C(=O)O)cn3CC)CC1)C(F)(F)F (centres undefined)
measured_target: K-562 leukemia
TGI: > 100 µM
--
compound: O=[N+]([O-])c1ccc(Sc2nc(Cl)nc(NC3CCCC3)n2)cc1
measured_target: K-562 leukemia
TGI: > 10 µM
--
compound: CC(C)(C)CNC(=O)NCn1cc(-c2ccccc2)nn1
measured_target: K-562 leukemia
TGI: > 100 µM
--
compound: CCC12CCCNC1c1c(n(C)c3ccccc13)C(C(=O)OC)C2 (centres undefined)
measured_target: K-562 leukemia
TGI: > 275 µM
--
compound: O=C1C=CC(=Nc2ccccc2)c2ccccc21
measured_target: K-562 leukemia
TGI: 42.6 µM

Attention now turns to another entry.
# query: TGI of entry O=C(NNc1ccc(F)cc1)C1CCC(CNS(=O)(=O)c2ccc(Cl)c(Cl)c2)CC1 (centres undefined) > 50 µM
